test: activity coefficient (dimensionless); of the first substance listed, at infinite dilution; xn = mol fraction of the nth substance listed; conditions: 358.15 K; 101 kPa; Liquid; Chromatography; x1 = 0
readout.name: activity coefficient

>>> result("C=Cc1ccccc1 [styrene] + CCCC[n+]1cccc(C)c1.N#C[N-]C#N")
1.54
>>> result("Cc1ccc(C)cc1 [1,4-dimethylbenzene] + CCCC[n+]1cccc(C)c1.N#C[N-]C#N")
3.08
>>> result("CCO [ethanol] + CCCC[n+]1cccc(C)c1.N#C[N-]C#N")
0.541
>>> result("CCCCCC [hexane] + CCCC[n+]1cccc(C)c1.N#C[N-]C#N")
38.6
>>> result("C=CCCCCCC [oct-1-ene] + CCCC[n+]1cccc(C)c1.N#C[N-]C#N")
37.6
>>> result("CCCC(C)=O [pentan-2-one] + CCCC[n+]1cccc(C)c1.N#C[N-]C#N")
1.93
>>> result("C1CCCCCCC1 [cyclooctane] + CCCC[n+]1cccc(C)c1.N#C[N-]C#N")
24.2
>>> result("O [water] + CCCC[n+]1cccc(C)c1.N#C[N-]C#N")
0.307
>>> result("CCC(C)(C)OC [2-methoxy-2-methylbutane] + CCCC[n+]1cccc(C)c1.N#C[N-]C#N")
9.35
>>> result("CCCCCCCC [octane] + CCCC[n+]1cccc(C)c1.N#C[N-]C#N")
79
>>> result("CCCCO [butan-1-ol] + CCCC[n+]1cccc(C)c1.N#C[N-]C#N")
0.84
>>> result("CCC(C)(C)C [2,2-dimethylbutane] + CCCC[n+]1cccc(C)c1.N#C[N-]C#N")
36.4
>>> result("COC(C)(C)C [2-methoxy-2-methylpropane] + CCCC[n+]1cccc(C)c1.N#C[N-]C#N")
6.8
>>> result("C#CCCCCCC [1-octyne] + CCCC[n+]1cccc(C)c1.N#C[N-]C#N")
9.68
>>> result("C1CCCCCC1 [cycloheptane] + CCCC[n+]1cccc(C)c1.N#C[N-]C#N")
19.5
>>> result("CC(C)=O [acetone] + CCCC[n+]1cccc(C)c1.N#C[N-]C#N")
1.03
>>> result("c1ccncc1 [pyridine] + CCCC[n+]1cccc(C)c1.N#C[N-]C#N")
0.754
>>> result("CCC[N+](=O)[O-] [1-nitropropane] + CCCC[n+]1cccc(C)c1.N#C[N-]C#N")
1.15
>>> result("C#CCCC [1-pentyne] + CCCC[n+]1cccc(C)c1.N#C[N-]C#N")
3.28
